tested on: PPARg:RXRa (NR concentration 180 nM, RXRa partner concentration 90 nM); test: PBM binding z-score (relative to random genomic background probes); higher = stronger binding; sequences stand for … in GC…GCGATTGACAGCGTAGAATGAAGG
Assign class by PBM binding z-score: not lower than 0.4 means yes (1); lower than 0.4 means no (0).

Prompt: Textbook exercise: given the entry TCCCGGAGGACACGAAGGTCAGAGCTTTCCAGAG , state whether its PBM binding z-score is greater than or equal to 0.4.
Response: no (0)

Prompt: Tell me whether PBM binding z-score is at least 0.4 here: TGAATGAGGTTAAAAGATCAGGGAACGTTGCAAA
Response: yes (1)

Prompt: # check: PBM binding z-score of CGAACTAGGTCAGGACAGGACAGTGAAGGATGAT is greater than or equal to 0.4
Response: yes (1)

Prompt: // inclusive: PBM binding z-score at least 0.4? input: AGTCAAAGTTCAGGACGAGGTAACGGAAAGCACG
Response: yes (1)

Prompt: Hello, I need to know if TCTATTAGTTGAAGGGCAACTGACGAGTCCGTTT has measured PBM binding z-score not below 0.4. Thanks!
Response: no (0)

Prompt: Please indicate if the recorded PBM binding z-score for CCAGACAAGTGAGAAGGTAACTCAGCCTCGATTA meets or exceeds 0.4.
Response: no (0)

Prompt: # bool: PBM binding z-score of CGTCCAAGGTCAGAGCGGTCAGTGAATGCCGAGT >= 0.4
Response: yes (1)

Prompt: Entry AGAATTAGGTTAAGATCAGGGAAACAGAATACAT : is its PBM binding z-score no less than 0.4?
Response: yes (1)

Prompt: Reported PBM binding z-score at or above 0.4? CGTCCAAAGTCAGAGAGGTCAGTGAATGCCGAGT
Response: no (0)

Prompt: Would you say CAAACTACGTCAAGAGGTCAAAGTCCGCTTCCCG shows PBM binding z-score at minimum 0.4?
Response: yes (1)

Prompt: Does PBM binding z-score meet or surpass 0.4 for ACTTACGGGTCAACGAGGTTATAGCACGCGTATA ?
Response: yes (1)
